- target_desc: T1, ANTIBODY EXPRESSION CONTROL
- T1 construct: also called mouse anti-canine antibody (capture reagent of the expression control ELISA)
- assay_info: SPR Biacore, expression control
// kon lookup, one value per entry
measured_metric: kon (M⁻¹ s⁻¹)

INSERT INTO results (binder, measurement) VALUES
  ('Mu_19F07_VL (SEQ ID NO: 49)_L50A (antibody, V domains shown) VH: EVKLVESEGGLVQPGSSMKLSCTASGFTFSDYYMAWVRQVPEKGLEWVANINYDGSSTYYLDSLKSRFIISRDNAKNILYLQMSSLKSEDTATYYCARGLTWDFDVWGTGTTVTVSS VL: DIVMTQSHKFMSPSVGDRVSITCKASQDVDTAVAWYQQKPGQSPKLLIYAASTRHTGVPDRFTGSGSGTDFTLTISNVQSEDLADYFCQQYSRFPLTFGAGTKLELKR', 293000),
  ('Mu_19F07_VL (SEQ ID NO: 49)_F94A (antibody, V domains shown) VH: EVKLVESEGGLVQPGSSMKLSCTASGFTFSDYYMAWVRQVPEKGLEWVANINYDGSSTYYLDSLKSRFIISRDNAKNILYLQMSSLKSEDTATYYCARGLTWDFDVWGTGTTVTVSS VL: DIVMTQSHKFMSPSVGDRVSITCKASQDVDTAVAWYQQKPGQSPKLLIYLASTRHTGVPDRFTGSGSGTDFTLTISNVQSEDLADYFCQQYSRAPLTFGAGTKLELKR', 335000),
  ('Mu_19F07_VH (SEQ ID NO: 47)_S56A (antibody, V domains shown) VH: EVKLVESEGGLVQPGSSMKLSCTASGFTFSDYYMAWVRQVPEKGLEWVANINYDGASTYYLDSLKSRFIISRDNAKNILYLQMSSLKSEDTATYYCARGLTWDFDVWGTGTTVTVSS VL: DIVMTQSHKFMSPSVGDRVSITCKASQDVDTAVAWYQQKPGQSPKLLIYLASTRHTGVPDRFTGSGSGTDFTLTISNVQSEDLADYFCQQYSRFPLTFGAGTKLELKR', 159000);
